Overview of reported Ki across a group of molecules:
biological target: UniProt:Q01827; experiment: Displacement of [3H]DTBZ from VMAT2 in rat whole brain by liquid scintillation spectrometry
Sequence (Q01827 whole entry): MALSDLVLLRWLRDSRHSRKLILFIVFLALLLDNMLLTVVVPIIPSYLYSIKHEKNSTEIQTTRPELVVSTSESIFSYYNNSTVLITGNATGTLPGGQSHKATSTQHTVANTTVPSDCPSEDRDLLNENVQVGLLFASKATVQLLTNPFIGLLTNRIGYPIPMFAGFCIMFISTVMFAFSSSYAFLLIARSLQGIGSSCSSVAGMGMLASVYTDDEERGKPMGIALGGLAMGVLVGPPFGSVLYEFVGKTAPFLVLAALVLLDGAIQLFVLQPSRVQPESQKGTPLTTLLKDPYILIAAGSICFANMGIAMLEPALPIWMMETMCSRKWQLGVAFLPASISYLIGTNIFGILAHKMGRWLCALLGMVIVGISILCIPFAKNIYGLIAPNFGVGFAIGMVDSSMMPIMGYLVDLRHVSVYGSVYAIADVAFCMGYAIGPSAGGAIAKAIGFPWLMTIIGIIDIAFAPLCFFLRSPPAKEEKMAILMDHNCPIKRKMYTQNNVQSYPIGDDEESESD
Please format your answer as a value with the unit trailing.

Look over these answered cases.
[[record]]
structure = "c1ccc2nc(CC[C@H]3CCC[C@@H](CCc4ccc5ccccc5n4)N3)ccc2c1"
result = "0.293 µM"

[[record]]
structure = "OC[C@H](O)CN1[C@@H](CCc2ccc3ccccc3n2)CCC[C@H]1CCc1ccc2ccccc2n1"
result = "0.627 µM"

[[record]]
structure = "c1ccc2c(CC[C@H]3CCC[C@@H](CCc4ccnc5ccccc45)N3)ccnc2c1"
result = "0.178 µM"


API: the following record is the query input.
Query string: Value lookup for Ki; key = c1cnc2ccc(CC[C@H]3CCC[C@@H](CCc4ccc5ncccc5c4)N3)cc2c1
Result string: 0.647 µM
